A compilation of pIC50 values for Poly [ADP-ribose] polymerase 1 (Homo sapiens) from the published literature.
pIC50: −log10 of the molar value.
measured property: pIC50

Below, each entry is followed by its recorded pIC50 result.
| molecule | target of assay | pIC50 |
| --- | --- | --- |
| CC(C)(C)C1Cc2[nH]c(=O)c3cnccc3c2CO1 (racemic) | Poly [ADP-ribose] polymerase 1 (Homo sapiens) | 6.06 |
| Cc1cc2ncc(CN3C[C@H](Oc4ccc(C(=O)NC5(C)CC5)nc4)[C@H]3C)cc2[nH]c1=O | Poly [ADP-ribose] polymerase 1 (Homo sapiens) | 8.05 |
| Cn1ccc2c(=O)[nH]c(N3CCN(S(C)(=O)=O)CC3)nc21 | Poly [ADP-ribose] polymerase 1 (Homo sapiens) | 6.22 |
| O=C(CCc1nc2ccccc2c(=O)[nH]1)N[C@H]1CC[C@H](c2nnc(-c3cccc(F)c3)o2)CC1 | Poly [ADP-ribose] polymerase 1 (Homo sapiens) | 5.96 |
| COCCN1CCN(c2cccc3c2Cc2c-3[nH]c(=O)c3c2CCCC3)CC1 | Poly [ADP-ribose] polymerase 1 (Homo sapiens) | 8.09 |

P. O=C(CCc1nc2ccccc2c(=O)[nH]1)N[C@H]1CC[C@H](c2nnc(-c3cccc(Cl)c3)o2)CC1
Q. O=C(CCSc1nc2ccc(F)cc2c(=O)[nH]1)N[C@H]1CC[C@H](c2nnc(-c3ccccc3)o2)CC1
R. [2H]C([2H])([2H])NC(=O)c1ccc(N2CCN(Cc3ccc4c([nH]c(=O)c5ccoc54)c3F)CC2)c(F)n1
S. Cn1cc(-c2cc3c(ccn3C)c(=O)[nH]2)cn1
Please order the records by their reported pIC50, lowest number first. Answer with the labels in sequence, matching the requested order. Q, P, S, R

I. Cn1ccc2c(=O)[nH]c(N3CC(C)(c4ccccc4)C3)nc21
II. O=C(CCCc1nc2ccccc2c(=O)[nH]1)N1CCC(c2nnc(-c3ccccc3)s2)CC1
Lower pIC50: I or II ? Indicate your choice by writing its label. II

I. O=c1[nH]c(N2CCN(c3ccccc3F)CC2)nc2c1ccn2CO
II. O=C(CCCc1nc2ccccc2c(=O)[nH]1)N1CCN(c2n[nH]c3ccccc23)CC1
III. CCc1cc2ncc(CN3CC[C@@H](Oc4ccc(C(=O)NC5COC5)nc4)C3)cc2[nH]c1=O
Please order the records by their reported pIC50, lowest number first. Answer with the labels in sequence, matching the requested order. I, II, III
(I: 4.97, II: 5.74, III: 8.26)

a. O=C(CN1CCC(C(=O)c2ccc(Cl)cc2)CC1)NCc1nc2c(c(=O)[nH]1)COCC2
b. N#Cc1ccc(O[C@H]2CC[C@H](NC(=O)CCSc3nc4c(c(=O)[nH]3)CCCC4)CC2)cc1
Lower pIC50: a or b ? Indicate your choice by writing its label. a
(a: 5.04, b: 5.60)

###

A compilation of IC50 values for Poly [ADP-ribose] polymerase 1 (Homo sapiens) from the published literature.

Below, each entry is followed by its recorded IC50 result.
| given smiles | IC50 |
| --- | --- |
| O=c1[nH]nc(Cc2ccc(F)c(P3(=O)CCN(C4CCC4)CC3)c2)c2ccccc12 | < 0.1 µM |
| O=c1[nH]nc(Cc2ccc(F)c(P3(=O)CCN(c4cccc(C(F)(F)F)n4)CC3)c2)c2ccccc12 | 0.1 to 1 µM |
| CN1CCN(c2cccc3c2Cc2c-3[nH]c(=O)c3cccnc23)CC1 | 0.0199 µM |
| O=C(CN1CCC(C(=O)c2ccc(OCCC3CC3)cc2)CC1)NCc1nc2c(c(=O)[nH]1)COCC2 | 1.75 µM |

What measured IC50 is associated with `O=c1[nH]c(C2=C[C@H](N3CCC(c4ccc(Cl)cc4)CC3)CC2)nc2c1CC1(CC2)CC1` on Poly [ADP-ribose] polymerase 1 (Homo sapiens)? 0.001 to 0.5 µM

What measured IC50 is associated with `NCCN1CCC(c2cnn3c2[nH]c2cc(F)cc(C(N)=O)c23)CC1` on Poly [ADP-ribose] polymerase 1 (Homo sapiens)? 0.001 to 0.1 µM

What measured IC50 is associated with `Cc1cc(N2CCN([C@H]3C=C(c4nc5c(c(=O)[nH]4)CC4(CC5)CC4)CC3)CC2)ncc1F` on Poly [ADP-ribose] polymerase 1 (Homo sapiens)? 0.001 to 0.5 µM

What measured IC50 is associated with `Cc1cc(N2CCN([C@H]3C=C(c4nc5c(c(=O)[nH]4)CC4(CC5)CC4)CC3)CC2)ccc1F` on Poly [ADP-ribose] polymerase 1 (Homo sapiens)? 0.001 to 0.5 µM

###

A compilation of IC50 values for Poly [ADP-ribose] polymerase 1 (Homo sapiens, UniProt P09874) from the published literature.
measured property: IC50 (nM)

| given smiles | output unit | value |
| --- | --- | --- |
| Cn1ccc2c(=O)[nH]c(N3CCN(c4c(Cl)cncc4Cl)CC3)nc21 | nM | 1370 |

I. C[C@@H]1CN(c2nc(-c3cnc(N)nc3)nc3c2CCN(C(=O)c2cc(Cc4n[nH]c(=O)c5ccccc45)ccc2F)C3)C[C@H](C)O1
II. O=C(CCCc1nc2ccccc2c(=O)[nH]1)N1CCC(c2nnc(-c3ccc(Cl)cc3)o2)CC1
Please tell me which of the two, I or II , has the higher reported IC50 value. Indicate your choice by writing its label. II
(II: 2410 nM, I: 3.87 nM)

###

A compilation of IC50 values for UniProt:P09874 from the published literature.

| molecule | IC50 |
| --- | --- |
| C[C@@H]1CN(c2ccc(C#N)cc2)CCN1[C@@H]1C=C(c2cc3ncccc3c(=O)[nH]2)CC1 (racemic) | 0.0051 to 0.05 µM |
| COc1ccc(C(=O)C2CCN(CC(=O)NCc3nc4c(c(=O)[nH]3)CCC4)CC2)cc1 | 17.9 µM |
| O=c1[nH]c(CCCN2CCN(c3ccc(F)cc3)CC2)nc2c1CC1(CC2)CC1 | 0.001 to 0.5 µM |
| Cc1cccc2c(=O)[nH]c3c(c12)COC(C1CCOCC1)C3 (racemic) | 0.0797 µM |
| Cc1ccc(N2CCN(CCCc3nc4c(c(=O)[nH]3)CC3(CC4)CC3)CC2)cc1 | 0.001 to 0.5 µM |
| CNC(=O)c1cnc(N2CCN([C@H]3C=C(c4nc5c(c(=O)[nH]4)CC4(CC5)CC4)CC3)CC2)c(F)c1 | 0.501 to 5 µM |
| [2H]C1(c2ccc(-n3cc4cccc(C(N)=O)c4n3)cc2F)CCCNC1 (stereo not shown) | < 0.1 µM |
| CC(=O)c1cccnc1N1CCP(=O)(c2cc(Cc3n[nH]c(=O)c4ccccc34)ccc2F)CC1 | < 0.1 µM |

What measured IC50 is associated with CC1(C2Cc3[nH]c(=O)c4ccccc4c3CO2)COC1 (racemic) on UniProt:P09874? 0.043 µM

What measured IC50 is associated with `O=c1[nH]nc(Cc2ccc(F)c(P3(=O)CCN(c4ncccc4F)CC3)c2)c2ccccc12` on UniProt:P09874? < 0.1 µM

###

A compilation of pIC50 values for Poly [ADP-ribose] polymerase 1 (Homo sapiens, UniProt P09874) from the published literature.
pIC50: −log10 of the molar value.

Below, each entry is followed by its recorded pIC50 result.
| compound | value |
| --- | --- |
| O=C(c1ccno1)N1CCN(C(=O)c2cc(Cn3c(=O)[nH]c(=O)c4ccccc43)ccc2F)CC1 | 8.00 to 10.00 |
| O=c1[nH]c(CCCN2CCN(c3ccc(Cl)c(Cl)c3)CC2)nc2c1CC1(CC2)CC1 | 5.30 to 6.30 |

What measured pIC50 is associated with `CCOC(=O)Nc1nc2cc(-c3n[nH]c(=O)c4cc(Cl)c(Cl)cc34)ccc2[nH]1` on Poly [ADP-ribose] polymerase 1 (Homo sapiens, UniProt P09874)? 5.30 to 6.00

What measured pIC50 is associated with `O=c1[nH]c(C2=C[C@H](N3CCN(c4ccc(F)cc4)CC3)CC2)cc2ncccc12` on Poly [ADP-ribose] polymerase 1 (Homo sapiens, UniProt P09874)? 8.30 to 9.30

What measured pIC50 is associated with `CNC(=O)c1cccc(N2CCN([C@H]3C=C(c4nc5c(c(=O)[nH]4)CC4(CC5)CC4)CC3)CC2)c1` on Poly [ADP-ribose] polymerase 1 (Homo sapiens, UniProt P09874)? 6.30 to 9.00

What measured pIC50 is associated with CC1(c2cnn3c2[nH]c2cc(F)cc(C(N)=O)c23)CCN(CC(F)(F)F)C1 (stereo not drawn) on Poly [ADP-ribose] polymerase 1 (Homo sapiens, UniProt P09874)? 7.00 to 9.00

###

A compilation of IC50 values for Poly [ADP-ribose] polymerase 1 (Homo sapiens) from the published literature.

Below, each entry is followed by its recorded IC50 result.
| molecule | IC50 |
| --- | --- |
| Cc1cc(N2CCN([C@H]3C=C(c4nc5c(c(=O)[nH]4)CC4(CC5)CC4)CC3)CC2)ccn1 | 1 to 500 nM |
| CNC(=O)c1ccc(N2CCN([C@H]3C=C(c4nc5c(c(=O)[nH]4)CC4(CC5)CC4)CC3)CC2)c(C)c1 | 1 to 500 nM |
| CCCN1CCC(c2cnn3c2[nH]c2cc(F)cc(C(N)=O)c23)CC1 | 1 to 100 nM |

Query molecule follows.
Which IC50 is listed for N#Cc1ccc(N2CCN([C@@H]3CC[C@@H](c4cc5ncccc5c(=O)[nH]4)C3)CC2)cc1 (single isomer, unassigned) ? 5.1 to 50 nM
